Taken from the supplement of paper PMC6757056.

B1: library; a variant is named by its letters at N, in order (parent)
chain: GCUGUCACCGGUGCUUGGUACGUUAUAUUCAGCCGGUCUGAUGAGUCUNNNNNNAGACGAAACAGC

# Variants of: B1
# method: normalized RNA/DNA level with ligand (relative to sTRSVctl = 100) (log10 (% of sTRSVctl)); HEK293T overexpressing SLC46A1; ligand concentration (+) RNA-Seq: 6 mM; higher = less ribozyme self-cleavage, higher mRNA level
# measurement setup: with (6R,S)-folinic acid; ligand present: yes
Kindly supply the reported normalized RNA/DNA level with ligand (log10) values for the records listed here.

INPUT: Which normalized RNA/DNA level with ligand (log10) is reported for this variant? CUAAGG
OUTPUT: 2

INPUT: Same question for CGGCCU please.
OUTPUT: 2.06

INPUT: Do the same for GAGGUG please
OUTPUT: 2.04
